# protocol.details: Neurotoxicity in ip dosed albino mouse assessed as inability to maintain equilibrium on rotarod after 30 mins by rotarod test
# Type: toxicity, organism-based
# condition.parameters: in vivo
experimental.endpoint: TD50 at 0.5 h (mg/kg)
Please give a number only; it is taken to be in mg/kg.

> print(dat)
                                 cpd.smiles  reported.measurement
1  Cc1nn(-c2ccccc2)c(Cl)c1/C=N/NC(=O)c1ccc(Cl)cc1                   300
2  Cc1nn(-c2ccccc2)c(Cl)c1/C=N/NC(=O)Cc1ccc(Cl)cc1                   300
3  Cc1nn(-c2ccccc2)c(Cl)c1/C=N/NC(=O)c1ccccc1                   100
4  Cc1nn(-c2ccccc2)c(Cl)c1/C=N/NC(=O)COc1ccccc1                   300

// switching to the query molecule
Request: For the molecule Cc1ccc(C(=O)N/N=C/c2c(C)nn(-c3ccccc3)c2Cl)cc1 , what TD50 at 0.5 h is on record?
Response: 100
